protocolDetails: Cmax in Sprague-Dawley rat at 1 mg/kg, iv
Assay type: ADME, organism-based
Parameters: dose 1 mg/kg, route intravenous
particulars: in vivo
measurementLabel: Cmax (ng/mL)

{"compound": "OC(CCN1CC=C(Cc2ccccc2)CC1)c1csc2ccccc12 (racemic)", "endpointResult": 653}
{"compound": "OC(CCN1CCC(O)(Cc2ccccc2)CC1)c1ccc(Cl)c(Cl)c1 (racemic)", "endpointResult": 750}

====

Known inhibition of a selection of compounds
measuredOn: 5-hydroxytryptamine receptor 1B (Homo sapiens) (UniProt P28222)
Sequence (P28222 whole entry): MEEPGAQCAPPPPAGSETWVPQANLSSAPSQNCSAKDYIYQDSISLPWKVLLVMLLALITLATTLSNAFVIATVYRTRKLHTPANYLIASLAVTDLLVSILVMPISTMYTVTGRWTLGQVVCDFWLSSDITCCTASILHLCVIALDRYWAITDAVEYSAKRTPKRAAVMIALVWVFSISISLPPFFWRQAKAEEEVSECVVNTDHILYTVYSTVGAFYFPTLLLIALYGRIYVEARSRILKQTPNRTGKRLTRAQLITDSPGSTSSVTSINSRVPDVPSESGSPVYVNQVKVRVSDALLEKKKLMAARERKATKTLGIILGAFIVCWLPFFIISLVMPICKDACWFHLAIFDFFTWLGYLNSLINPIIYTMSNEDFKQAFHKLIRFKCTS
protocolDetails: Displacement of [I125]CYP from 5HT1B receptor at 10 uM

{"compound": "OC(CCN1CCC(O)(Cc2ccccc2)CC1)c1ccc(Cl)c(Cl)c1 (racemic)", "inhibition [%]": 9.7}
{"compound": "COc1ccc2cc(C(O)CCN3CC=C(Cc4ccccc4)CC3)ccc2c1Cl (racemic)", "inhibition [%]": 10.2}
{"compound": "OC(CCN1CC=C(Cc2ccccc2)CC1)c1csc2ccccc12 (racemic)", "inhibition [%]": 6.5}
{"compound": "OC(CCN1CC=C(Cc2ccccc2)CC1)c1ccc(Cl)c(Cl)c1 (racemic)", "inhibition [%]": 0.6}
